Readout Kind: melting point

Solved entries:
Cc1cc2nc3c4cc(Cl)ccc4n(CC(=O)O)c3nc2cc1C [Compound K] | 331 to 332 °C
Cc1cc2nc3c4cc(F)ccc4n(CC(N)=O)c3nc2cc1C [Compound C] | 316 to 319 °C
Cc1cc2nc3c4cc(F)ccc4n(CC(=O)O)c3nc2cc1C [Compound L] | 317 to 318 °C

Shifting focus to the compound that follows.
Request the reported melting point associated with Cc1cc2nc3c4cc(F)ccc4n(CC(=O)NCCN)c3nc2cc1C [Compound H]
269 to 271 °C
